target: Neuropeptide FF receptor 1 (Homo sapiens); assay: Displacement of [125I]-1DMeNPFF from human NPFFR1 expressed in CHO cell membrane at 0.5 uM incubated for 1 hr by Topcount counting method relative to control; type: cell membranes
Sequence (Q9GZQ6 whole entry): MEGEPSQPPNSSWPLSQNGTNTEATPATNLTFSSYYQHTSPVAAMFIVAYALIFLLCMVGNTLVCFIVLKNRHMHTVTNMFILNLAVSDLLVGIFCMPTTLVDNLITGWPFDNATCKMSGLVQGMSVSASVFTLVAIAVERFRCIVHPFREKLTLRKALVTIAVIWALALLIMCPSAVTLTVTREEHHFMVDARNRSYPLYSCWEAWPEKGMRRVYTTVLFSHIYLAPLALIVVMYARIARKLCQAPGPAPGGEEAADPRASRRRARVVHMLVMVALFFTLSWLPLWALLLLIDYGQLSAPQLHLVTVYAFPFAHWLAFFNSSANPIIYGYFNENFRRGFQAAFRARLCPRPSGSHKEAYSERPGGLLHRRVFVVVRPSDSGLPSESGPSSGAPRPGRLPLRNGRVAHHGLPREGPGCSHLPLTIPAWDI
Numbered stars: 1 amine (or outer) side, 2 acyl side, 3 side chain; on linkers, the order of the positions; unused ones are H or OH. Square brackets hold non-standard residues; d marks the D form. Peptide text beside a SMILES is read from it. Nva(5-(4-Bn-piperidin-1-yl)) = N[C@@H](CCCN1CCC(Cc2ccccc2)CC1)C(=O)O; X1 = O=C1[C@@H](N[*:1])Cc2ccccc2CN1CCC(=O)[*:2]; Dmt = Cc1cc(O)cc(C)c1C[C@H](N)C(=O)O
The entries below come with measured Activity values attached.
Only the number, expressed in %, is required.

// below: answered compounds
Please give the documented Activity of Cc1cc(O)cc(C)c1C[C@H](N)C(=O)N(C)[C@H](C)C(=O)N[C@H]1Cc2c(ccc3ccccc23)CN(CC(=O)N[C@@H](CCCN2CCC(Cc3ccccc3)CC2)C(=O)N[C@@H](Cc2ccccc2)C(N)=O)C1=O
22

Please give the documented Activity of Cc1cc(O)cc(C)c1C[C@H](N)C(=O)N1CCC[C@@H]1C(=O)N[C@H]1Cc2ccccc2CN(CCC(=O)N[C@@H](CCCN2CCC(Cc3ccccc3)CC2)C(=O)N[C@@H](Cc2ccccc2)C(N)=O)C1=O (H-[Dmt][dP][X1][Nva(5-(4-Bn-piperidin-1-yl))]F-NH2)
33

Please give the documented Activity of Cc1cc(O)cc(C)c1C[C@H](N)C(=O)N[C@H](CCCNC(=N)N)C(=O)N[C@H]1Cc2c(ccc3ccccc23)CN(CC(=O)N[C@@H](CCCN2CCC(Cc3ccccc3)CC2)C(=O)N[C@@H](Cc2ccccc2)C(N)=O)C1=O
35

Consider now this further compound.
Please give the documented Activity of Cc1cc(O)cc(C)c1C[C@H](N)C(=O)N(C)[C@H](C)C(=O)N[C@H]1Cc2c(ccc3ccccc23)CN(CCC(=O)N[C@@H](CCCN2CCC(Cc3ccccc3)CC2)C(=O)N[C@@H](Cc2ccccc2)C(N)=O)C1=O
19
